- Test system: SN12C renal
- PROCEDURE DETAILS: NCI-60 one-dose screen, 48 h (100 = growth as untreated, 0 = no growth, -100 = all killed)
- CONDITION SET: 10 µM unless noted
Compounds without any hit were thinned out: in the full panel of roughly 83,000, 20% have a hit.
Below, each entry is listed with its recorded growth.
Entry rule: numbers only, all in %.

Below, 10 compounds whose answers are already recorded.
• CC1=C(CCCOC(=O)NCCCl)C2=C(C)C3(CC3)[C@@](C)(O)C(=O)C2=C1 = 45.7
• CC(=O)c1cc2c(N)c(C(=O)Nc3ccccn3)sc2nc1C = 92.7
• O=C(NC[C@H](O)CN1CCc2ccccc2C1)c1cc(NC2COC2)ncn1 = 95.5
• COc1ccccc1N1CCN(CCCOc2ccc(C(=O)/C=C3/C(=O)Nc4ccccc43)cc2)CC1 = 69.7
• CC(C)NS(=O)(=O)c1cccc(-c2ccc3c4c(n(CCCN(C)C)c(=O)c3c2)-c2ccccc2C4=O)c1 = 97.2
• COc1ccc(Cl)c([N+](=O)[O-])c1 = 99
• CCCS(=O)(=O)Nc1ccc(F)c(C(=O)c2c[nH]c3ncc(-c4ccc(OCCCC5CCCCN5)nc4)cc23)c1F (stereo not given) = 62.5
• CCOC(=O)c1c(C)nc2c(c1N)/C(=C/c1cccs1)C(=O)N2Cc1ccccc1 = 73.2
• CCCCn1c2cc(OCc3cn(-c4ccc(Cl)cc4)nn3)ccc2c2ccnc(C)c21 = 10.5
• COC(=O)c1ccc2c(c1)n(Cc1ccc3ccccc3c1)c[n+]2Cc1ccc2ccccc2c1 = 38.4

Report growth for COc1cccc(C(=O)OCCn2nc3c4c(cccc42)C(=O)c2ccccc2-3)c1O please.
41.5

Report growth for C=CCn1c(CN2CCN(c3cc4c(cc3F)c(=O)c(C(=O)O)cn4C3CC3)CC2)n[nH]c1=S please.
104

Report growth for COc1cc(-c2csc(NC(=O)Nc3ccc(C(F)(F)F)cc3)n2)cc(OC)c1OC please.
3.08

Report growth for O=C(Nc1cc(=O)[nH]c(=O)[nH]1)C(Cl)Cl please.
98
